testSystem: CB1 receptor (hCB1) (Homo sapiens, UniProt P21554)
Construct: expressed in transfected cells; host or cells: Xenopus laevis oocytes (cRNA injection)
Sequence (P21554 whole entry): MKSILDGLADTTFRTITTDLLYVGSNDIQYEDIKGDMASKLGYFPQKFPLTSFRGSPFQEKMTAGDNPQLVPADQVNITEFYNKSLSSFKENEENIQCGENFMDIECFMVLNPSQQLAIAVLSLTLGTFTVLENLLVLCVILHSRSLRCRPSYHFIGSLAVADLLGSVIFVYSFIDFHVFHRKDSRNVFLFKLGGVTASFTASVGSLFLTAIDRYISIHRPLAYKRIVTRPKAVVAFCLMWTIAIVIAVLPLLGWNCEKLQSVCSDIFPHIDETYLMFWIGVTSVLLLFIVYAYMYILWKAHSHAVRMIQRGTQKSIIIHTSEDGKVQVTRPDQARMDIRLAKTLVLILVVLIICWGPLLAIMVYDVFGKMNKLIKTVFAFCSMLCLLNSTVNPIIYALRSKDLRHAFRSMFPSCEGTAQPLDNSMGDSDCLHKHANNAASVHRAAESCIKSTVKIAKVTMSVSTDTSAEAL
assayExplanation: Two-electrode voltage-clamp, CB1-GIRK1/GIRK2-RGS4 coupling system expressed in Xenopus oocytes
Type: cell-based
measurementParameters: IC50 of blocking CB1 receptor activated by WIN55,212-2, 1 μM WIN + OS
endpointName: IC50 (µM)
Answers are plain numbers, in µM.

Q. Please give the documented IC50 of CCCCCCCC/C=C\CCCCCCCC(=O)NCCc1c[nH]c2ccc(O)cc12
A. 34.1

====

testSystem: CB2 receptor (hCB2) (Homo sapiens)
Construct: expressed in transfected cells; host or cells: Xenopus laevis oocytes (cRNA injection)
Sequence (P34972 whole entry): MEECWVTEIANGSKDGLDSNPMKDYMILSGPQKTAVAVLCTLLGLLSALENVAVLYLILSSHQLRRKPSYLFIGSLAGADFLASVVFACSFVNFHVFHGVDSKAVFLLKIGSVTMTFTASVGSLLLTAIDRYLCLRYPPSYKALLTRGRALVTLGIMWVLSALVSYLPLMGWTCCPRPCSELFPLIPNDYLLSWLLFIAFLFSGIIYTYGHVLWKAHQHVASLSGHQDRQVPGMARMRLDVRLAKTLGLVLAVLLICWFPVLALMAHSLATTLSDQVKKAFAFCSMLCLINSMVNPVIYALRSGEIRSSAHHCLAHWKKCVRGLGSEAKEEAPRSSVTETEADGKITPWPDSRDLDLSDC
assayExplanation: Two-electrode voltage-clamp, CB2-GIRK1/GIRK2-RGS4 coupling system expressed in Xenopus oocytes
Assay type: cell-based
measurementParameters: IC50 of blocking CB2 receptor activated by WIN55,212-2, 0.1 μM WIN + OS
endpointName: IC50
Record the result as a number with its unit.

Q. Give the observed IC50 of CCCCCCCC/C=C\CCCCCCCC(=O)NCCc1c[nH]c2ccc(O)cc12 for CB2 receptor (hCB2) (Homo sapiens).
A. 13.2 µM
